Value source: patent EP3858439A1

target: human µ-opioid receptor (Homo sapiens, UniProt P35372); construct: expressed in transfected cells; host or cells: CHO-K1; assay: Binding assay to human µ-opioid receptor ([3H]-DAMGO displacement)
Sequence (P35372 whole entry): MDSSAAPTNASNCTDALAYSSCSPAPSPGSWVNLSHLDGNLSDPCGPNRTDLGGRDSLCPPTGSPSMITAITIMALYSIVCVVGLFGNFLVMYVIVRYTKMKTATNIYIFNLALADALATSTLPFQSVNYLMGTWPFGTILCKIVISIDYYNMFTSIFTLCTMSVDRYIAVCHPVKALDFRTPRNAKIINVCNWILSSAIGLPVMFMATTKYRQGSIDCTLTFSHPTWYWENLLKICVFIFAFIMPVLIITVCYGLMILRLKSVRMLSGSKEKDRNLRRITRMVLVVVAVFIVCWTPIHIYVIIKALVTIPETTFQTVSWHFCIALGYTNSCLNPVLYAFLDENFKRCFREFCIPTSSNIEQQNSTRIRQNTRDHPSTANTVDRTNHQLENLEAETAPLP
Counter-ions that a name gives are not always drawn.
MEASURED METRIC: Ki

Solved cases (3 shown):
COMPOUND: CNC[C@H](C(=O)N1CCC(c2ccccc2)(N(C)C)CC1)[C@H](C)c1ccccc1
Ki: 100 to 500 nM
//
COMPOUND: CNCC(Cc1ccccc1)C(=O)N1CCC(NC)(c2cccc(O)c2)CC1 (stereo not shown) [Example 44, dihydrochloride]
Ki: < 100 nM
//
COMPOUND: CNCC(Cc1ccccc1C#N)C(=O)N1CCC(c2ccccc2)(N(C)C)CC1 (stereo not shown) [Example 55, dihydrochloride]
Ki: 100 to 500 nM

Attention now shifts to the item below.
Requested read-out: Ki. Entry: CNCC(Cc1ccccc1)C(=O)N1CCC(c2ccccc2)(N(C)C)CC1 (stereo not shown)
100 to 500 nM

----------
target: human µ-opioid receptor (Homo sapiens, UniProt P35372); construct: expressed in transfected cells; host or cells: CHO-K1; assay: Binding assay to human µ-opioid receptor ([3H]-DAMGO displacement)
pKi: −log10 of the molar value. Counter-ions that a name gives are not always drawn.
MEASURED METRIC: pKi

MOLECULE: CN(C)C1(c2ccccc2)CCN(C(=O)[C@@H](CN)[C@@H]2CCCc3ccccc32)CC1 (racemic)
ENDPOINT VALUE: > 7.00
--
MOLECULE: CNCC(Cc1ccccc1F)C(=O)N1CCC(c2ccccc2)(N(C)C)CC1 (centres unmarked) [Example 57, dihydrochloride]
ENDPOINT VALUE: > 7.00
--
MOLECULE: CCNCC(Cc1ccccc1)C(=O)N1CCC(c2ccccc2)(N(C)C)CC1 (centres unmarked) [Example 30, dihydrochloride]
ENDPOINT VALUE: > 7.00
--
MOLECULE: CNCC(Cc1cccc(F)c1)C(=O)N1CCC(c2ccccc2)(N(C)C)CC1 (centres unmarked)
ENDPOINT VALUE: > 7.00
--
MOLECULE: CN(C)C1(c2ccccc2)CCN(C(=O)C(CNCc2ccccc2)Cc2ccccc2)CC1 (centres unmarked) [Example 76, dihydrochloride]
ENDPOINT VALUE: > 7.00

Items follow; give pKi for each.
1. CNC[C@@H](C(=O)N1CCC(c2ccccc2)(N(C)C)CC1)[C@H](C)c1ccccc1
2. Cc1ccccc1CC(CN)C(=O)N1CCC(c2ccccc2)(N(C)C)CC1 (centres unmarked) [Example 75, dihydrochloride]

6.30 to 7.00
6.30 to 7.00

Hi, could you look up pKi for each item in my list?
1. CN(C)C1(c2ccccc2)CCN(C(=O)[C@H](CN)C(C)(C)c2ccccc2)CC1
2. CNC1(c2ccccc2)CCN(C(=O)[C@H](CN)[C@@H](C)c2ccccc2)CC1
3. CN(C)C1(c2ccccc2)CCN(C(=O)[C@@H](CN)[C@H]2CCCc3ccccc32)CC1 (racemic)
4. CN(C)C1(c2ccccc2)CCN(C(=O)C(CN)Cc2ccccc2)CC1 (centres unmarked) [Example 28, dihydrochloride]
5. CNCCC(Cc1ccccc1)C(=O)N1CCC(c2ccccc2)(N(C)C)CC1 (centres unmarked) [Example 31, dihydrochloride]
6. CNCC(Cc1ccccc1)C(=O)N1CCC(c2cccc(O)c2)(N(C)C)CC1 (centres unmarked) [Example 34, dihydrochloride]

1: > 7.00; 2: > 7.00; 3: > 7.00; 4: > 7.00; 5: 6.30 to 7.00; 6: > 7.00

Which pKi value is on record for CNC[C@H](Cc1ccccc1)C(=O)N1CCC(c2ccccc2)(N(C)C)CC1 [Example 79, dihydrochloride] ?
> 7.00

----------
target: human µ-opioid receptor (Homo sapiens, UniProt P35372); construct: expressed in transfected cells; host or cells: CHO-K1; experiment: Binding assay to human µ-opioid receptor ([3H]-DAMGO displacement); conditions: Table 2; transfected CHO-K1 cell membranes, [3H]-DAMGO 1 nM, 60 min at 27 °C; read-out: Binding µ
pKi: −log10 of the molar value. Structures can show the parent of a compound that is named as a salt.
MEASURED METRIC: pKi

Below are worked cases with known answers.
COMPOUND: CC[C@@H](c1ccccc1)[C@@H](CNC)C(=O)N1CC(c2ccccc2)(N(C)C)C1 [Example 19, dihydrochloride]
pKi: < 6.30
//
COMPOUND: CC[C@@H](c1ccccc1)[C@@H](CN)C(=O)N1CCC(c2ccccc2)(N(C)C)CC1 [Example 8, dihydrochloride]
pKi: > 7.00

Let's switch to this compound now.
Any idea what its pKi is? The compound is C[C@@H](N)[C@@H](Cc1ccccc1)C(=O)N1CCC(c2ccccc2)(N(C)C)CC1 [Example 49, dihydrochloride]
6.30 to 7.00

----------
biological target: human µ-opioid receptor (Homo sapiens, UniProt P35372); construct: expressed in transfected cells; host or cells: CHO-K1; test: Binding assay to human µ-opioid receptor ([3H]-DAMGO displacement); conditions: Table 2; transfected CHO-K1 cell membranes, [3H]-DAMGO 1 nM, 60 min at 27 °C; read-out: Binding µ
Structures can show the parent of a compound that is named as a salt.
Kindly supply the reported Ki values for the records listed here.

COMPOUND: CC[C@@H](c1ccccc1)[C@@H](CNC)C(=O)N1CCC(NC)(c2ccccc2)CC1 [Example 17, dihydrochloride]
ASSAYED SYSTEM: human µ-opioid receptor (Homo sapiens, UniProt P35372)
ENDPOINT VALUE: < 100 nM
//
COMPOUND: CC[C@@H](c1ccccc1)[C@@H](CNC)C(=O)N1CCC(NC)(c2ccc(F)cc2)CC1
ASSAYED SYSTEM: human µ-opioid receptor (Homo sapiens, UniProt P35372)
ENDPOINT VALUE: < 100 nM
//
COMPOUND: CNC[C@@H](C(=O)N1CCC(c2ccccc2)(N(C)C)CC1)[C@@H](C)c1ccccc1F [Example 14, dihydrochloride]
ASSAYED SYSTEM: human µ-opioid receptor (Homo sapiens, UniProt P35372)
ENDPOINT VALUE: 100 to 500 nM

Fill in the blank: the reported Ki of "CNC[C@@H](C(=O)N1CCC(c2ccccc2)(N(C)C)CC1)[C@@H](C)c1cccc(F)c1" is ____.
< 100 nM
